Assay Overview: chemical genetic growth profiling, strain panel (AID 1159580);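 note: tested at 20 µM; growth read once vehicle control cultures reached saturation at 30 °C; 1 = growth at the plate median or of vehicle wells; lower values mean less growth of the strain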
Assay Setup: S. cerevisiae deletion strains, growth OD, locus YDR334W, strain swr1, hits give low values
Among all 5,500 compounds or so, about 2,000 (36%) were called active. Another 18% or so got no clear call; they are omitted. The list shows a part of the results.
Classify: 1 when normalized growth is strictly less than 1; -1 when normalized growth is not.

- Smiles Repr: "CCS(=O)(=O)CCn1c([N+](=O)[O-])cnc1C"
  Class Assignment: 1

Please examine the following record next.
# input Does `O=c1[nH]cnc2nc[nH]c12` have normalized growth strictly under 1?
# output -1

====

Assay Overview: chemical genetic growth profiling, strain panel (AID 1159580);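 note: tested at 20 µM; growth read once vehicle control cultures reached saturation at 30 °C; 1 = growth at the plate median or of vehicle wells; lower values mean less growth of the strain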
Assay Setup: S. cerevisiae deletion strains, growth OD, locus YIL073C, strain SPO22, hits give low values
In all, about 5,500 compounds went through this assay and about 2,000 (36%) were called active. About 18% were inconclusive and are not listed. Some of the results follow.
Measured normalized growth accompanies every entry in the list below.
Give the figure only, with no unit attached.

Study these solved cases before continuing.
- Compound: "CC(C)(O)CC[C@@H](O)[C@](C)(O)C1CC[C@@]2(O)C3=CC(=O)C4C[C@@H](O)[C@@H](O)C[C@]4(C)C3CC[C@]12C (stereo not given in full)"
  normalized growth: 1.02
- Compound: "CC(C)=CCC1=C(O)c2ccccc2C(=O)C1=O"
  normalized growth: 0.824

# input Sample `COc1cc(O)c(C(C)=O)c(OC)c1` — what was its normalized growth?
# output 0.967

# input Sample `COc1cc(O)c(C)c(O)c1` — what was its normalized growth?
# output 1.13

# input Sample CC(=O)OC1CCC23C(=O)OC45CCC(C6=CC(=O)OC6)C4(C)CCC2C5CCC3(O)C1 (stereo not given) — what was its normalized growth?
# output 1.11

# input Sample `NCCS` — what was its normalized growth?
# output 1.02

# input Sample `COC(=O)C1=CO[C@@H](O[C@@H]2O[C@H](CO)[C@@H](O)[C@H](O)[C@H]2O)[C@@H]2[C@@H](C)[C@@H](O)C[C@H]12` — what was its normalized growth?
# output 0.986

# input Sample `COc1cc(O)c(C(=O)c2ccccc2)c(OC)c1` — what was its normalized growth?
# output 1

# input Sample C[C@]12C=CC(=O)C=C1CCC1C2C(=O)C[C@@]2(C)C1CC[C@]2(O)C(=O)CO (stereo not given in full) — what was its normalized growth?
# output 1.01

# input Sample C[C@]12CCC3C(CC[C@H]4C[C@@H](Cl)CC[C@]34C)C1CCC2=O (stereo not given in full) — what was its normalized growth?
# output 1.05

====

Assay Overview: chemical genetic growth profiling, strain panel (AID 1159580);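 note: tested at 20 µM; growth read once vehicle control cultures reached saturation at 30 °C; 1 = growth at the plate median or of vehicle wells; lower values mean less growth of the strain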
Assay Setup: S. cerevisiae deletion strains, growth OD, locus YPL256C, strain CLN2
In all, about 5,500 compounds went through this assay and about 2,000 (36%) were called active. Roughly 18% stayed inconclusive and do not appear here. Cut-off read from the data, not from the text of the source: active = normalized growth mostly below about 0.91 (no sharp cut-off); inconclusive = no clear call, values can overlap the other calls; inactive = mostly above about 0.92. Some of the results follow.
Permitted responses: Y = active, N = inactive

Previously resolved entries follow.
- Compound: "NNC(=O)COc1ccc(C2SCCS2)cc1"
  Class Assignment: "Y"
- Compound: "O=C(NNc1c(Cl)cccc1Cl)c1ccc([N+](=O)[O-])o1"
  Class Assignment: "Y"
- Compound: "Cc1nc(C(F)(F)F)ccc1-c1nnc(SC(=O)c2ccc(Cl)cc2)o1"
  Class Assignment: "Y"
- Compound: "Cc1nn(Cc2cccc(C(=O)O/N=C(/N)c3ccc(Cl)cc3)c2)c(C)c1Br"
  Class Assignment: "N"
- Compound: "N#CC(C#N)=NNc1ccc(C(F)(F)F)cc1"
  Class Assignment: "Y"
- Compound: "COc1cc(OC)c(-c2c(OC)cc(OC)cc2OC)c(OC)c1"
  Class Assignment: "N"
- Compound: "Cc1nccc2c1[nH]c1ccccc12"
  Class Assignment: "N"
- Compound: "COc1cc(O)c(C)c(O)c1"
  Class Assignment: "N"
- Compound: "N#C/C(=N/Nc1ccc(C(F)(F)F)cc1)C(=O)C1CC1"
  Class Assignment: "N"
- Compound: "COc1cc(O)c(C(=O)O)c(O)c1"
  Class Assignment: "Y"

# input // outcome(item) with item = `O=c1[nH]c2ccccc2n1C1CCN(CCCC(c2ccc(F)cc2)c2ccc(F)cc2)CC1`
# output N

# input // outcome(item) with item = `Fc1ccc(Nc2nc(-c3ccc(F)c(F)c3)cs2)c(F)c1`
# output Y

# input // outcome(item) with item = `FC(F)(F)COCC(F)(F)F`
# output N

# input // outcome(item) with item = CCOC(=O)C1C(c2ccc(Br)cc2)C(C(=O)OCC)C(O)(C(F)(F)F)NC1(O)C(F)(F)F (configuration not stated)
# output N

# input // outcome(item) with item = `S=C(NCc1ccco1)Nc1ccc(Oc2ccc(Cl)cc2)cc1`
# output Y

# input // outcome(item) with item = `Cn1cnc([N+](=O)[O-])c1Sc1ncnc2nc[nH]c12`
# output N

# input // outcome(item) with item = CC(=O)O[C@H]1CC2CCC3C(CC[C@@]4(C)C3C[C@H]([N+]3(C)CCCCC3)[C@@H]4OC(C)=O)[C@@]2(C)C[C@@H]1[N+]1(C)CCCCC1 (some centres not stated)
# output N

# input // outcome(item) with item = CC(NC(=S)Nc1ccc(Oc2ccc(Cl)cc2)cc1)c1ccccc1 (configuration not stated)
# output N
